# target.or.system: CDK12 (nuclear staining in CAL-120 cells) (Homo sapiens, UniProt Q9NYV4)
# Construct: endogenous in cells; host or cells: CAL-120 human breast cancer cells (DSMZ ACC 459)
# Sequence (Q9NYV4 whole entry): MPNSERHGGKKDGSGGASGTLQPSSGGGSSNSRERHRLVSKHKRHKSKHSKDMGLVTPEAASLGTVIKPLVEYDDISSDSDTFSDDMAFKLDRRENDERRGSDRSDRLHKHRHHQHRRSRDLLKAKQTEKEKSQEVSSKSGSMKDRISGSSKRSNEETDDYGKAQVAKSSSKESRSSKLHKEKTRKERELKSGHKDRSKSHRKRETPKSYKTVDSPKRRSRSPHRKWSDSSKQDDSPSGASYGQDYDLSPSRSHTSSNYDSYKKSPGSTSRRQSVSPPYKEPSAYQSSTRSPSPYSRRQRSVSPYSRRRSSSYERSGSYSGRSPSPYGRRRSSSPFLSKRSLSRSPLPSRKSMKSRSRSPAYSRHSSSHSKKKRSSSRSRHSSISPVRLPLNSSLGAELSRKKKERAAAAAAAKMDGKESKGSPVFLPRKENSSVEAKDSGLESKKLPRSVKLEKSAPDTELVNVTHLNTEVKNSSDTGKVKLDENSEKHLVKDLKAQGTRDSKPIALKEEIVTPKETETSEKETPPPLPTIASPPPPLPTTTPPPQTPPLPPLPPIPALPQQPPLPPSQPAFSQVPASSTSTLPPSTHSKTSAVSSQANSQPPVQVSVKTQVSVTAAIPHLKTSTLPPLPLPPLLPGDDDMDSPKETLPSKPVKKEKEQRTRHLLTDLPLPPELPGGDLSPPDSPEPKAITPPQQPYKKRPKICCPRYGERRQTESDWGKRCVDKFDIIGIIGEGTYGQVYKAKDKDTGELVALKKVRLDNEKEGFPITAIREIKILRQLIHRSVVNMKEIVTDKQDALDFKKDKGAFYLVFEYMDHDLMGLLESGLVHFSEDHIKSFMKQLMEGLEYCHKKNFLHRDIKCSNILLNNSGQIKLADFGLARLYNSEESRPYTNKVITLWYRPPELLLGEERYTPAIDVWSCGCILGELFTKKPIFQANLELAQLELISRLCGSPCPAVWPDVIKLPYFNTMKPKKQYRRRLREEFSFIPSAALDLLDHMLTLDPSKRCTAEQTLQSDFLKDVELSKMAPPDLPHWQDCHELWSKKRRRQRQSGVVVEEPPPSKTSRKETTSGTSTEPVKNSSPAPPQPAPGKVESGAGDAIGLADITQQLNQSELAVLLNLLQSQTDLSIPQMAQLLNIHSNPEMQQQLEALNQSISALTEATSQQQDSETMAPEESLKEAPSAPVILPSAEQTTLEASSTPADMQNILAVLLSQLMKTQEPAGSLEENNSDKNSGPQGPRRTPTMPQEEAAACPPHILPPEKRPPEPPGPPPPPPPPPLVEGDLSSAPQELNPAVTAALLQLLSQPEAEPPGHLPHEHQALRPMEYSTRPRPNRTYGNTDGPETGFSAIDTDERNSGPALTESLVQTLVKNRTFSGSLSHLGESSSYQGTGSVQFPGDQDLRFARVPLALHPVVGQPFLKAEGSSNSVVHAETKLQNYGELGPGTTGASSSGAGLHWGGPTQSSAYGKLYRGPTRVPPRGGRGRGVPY
# Sequence (O75909 whole entry partner): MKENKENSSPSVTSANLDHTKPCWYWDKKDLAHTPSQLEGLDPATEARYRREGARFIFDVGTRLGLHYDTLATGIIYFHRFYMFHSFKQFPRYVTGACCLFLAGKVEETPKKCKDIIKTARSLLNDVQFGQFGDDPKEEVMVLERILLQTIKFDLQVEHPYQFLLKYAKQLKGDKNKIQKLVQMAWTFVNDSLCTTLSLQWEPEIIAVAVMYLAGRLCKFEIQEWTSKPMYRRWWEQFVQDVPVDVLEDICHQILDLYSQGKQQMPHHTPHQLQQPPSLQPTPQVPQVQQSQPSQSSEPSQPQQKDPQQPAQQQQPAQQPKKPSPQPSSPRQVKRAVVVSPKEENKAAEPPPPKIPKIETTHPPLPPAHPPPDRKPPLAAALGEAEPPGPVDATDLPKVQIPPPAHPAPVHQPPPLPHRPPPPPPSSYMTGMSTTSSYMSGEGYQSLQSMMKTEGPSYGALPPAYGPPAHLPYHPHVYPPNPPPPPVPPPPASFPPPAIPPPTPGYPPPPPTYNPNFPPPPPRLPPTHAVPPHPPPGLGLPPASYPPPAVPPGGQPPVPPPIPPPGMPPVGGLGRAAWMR
# method.notes: CDK12 nuclear protein level: immunofluorescence/high content analysis (CAL-120)
# Type: cell-based
# cond: CAL-120 cells, 24 h, immunofluorescence; 50% reduction of nuclear CDK12 staining intensity; median; read-out: CDK12 degradation IF, DC50- [mol/l] (median)
value.type: DC50 (nM)

# annotated cases, reported DC50 shown
N[C@H]1[C@@H]2C[C@H]1CN(c1nc(NCc3nc4ccccc4[nH]3)n3ncc(Br)c3n1)C2 [Example 288]    1.16
FC(F)(F)c1cnn2c(NCc3nc4cc(Cl)ccc4[nH]3)nc(N3CCOCC3)nc12 [Example 275]    1.7
N[C@H]1CN(c2nc(NCc3nc4ccccc4[nH]3)n3ncc(Br)c3n2)CC12CC2 [Example 259]    7.16
CN1CCN(c2nc(NCc3nc4ccccc4[nH]3)n3ncc(Br)c3n2)CC1=O [Example 131]    122

(1) CN1CCN(c2nc(NCc3nc4cc(F)c(F)cc4[nH]3)n3ncc(Br)c3n2)CC1 [Example 346]
(2) COc1cccc(-c2cnc(CNc3nc(N4CCOCC4)nc4c(Br)cnn34)[nH]2)c1 [Example 80]
Q: # query: argmin of DC50 over 1 and 2 Which one? Tell me its label.
A: 1
(1: 2.35 nM, 2: 4.28 nM)

(I) Fc1ccc(-c2cnc(CNc3nc(N4CCOCC4)nc4c(Br)cnn34)[nH]2)cc1 [Example 66]
(II) FC(F)(F)Oc1cccc2[nH]c(CNc3nc(N4CCOCC4)nc4c(Br)cnn34)nc12 [Example 375]
Q: # query: argmin of DC50 over I and II Which one? Tell me its label.
A: II

----------
# target.or.system: CDK2/CycE (Homo sapiens, UniProt P24941)
# Construct: purchased ProQinase GmbH (Freiburg, Germany); host or cells: insect cells (Sf9)
# method.notes: CDK2/CycE kinase assay (TR-FRET, 2 mM ATP)
# Format: biochemical
# cond: 2 mM ATP (high ATP); median; read-out: CDK2/CyclinE, 2 mM ATP (high ATP), IC50 (median)
pIC50: −log10 of the molar value.
value.type: pIC50

Brc1cnn2c(NCc3nc4ccccc4[nH]3)nc(N3C[C@H]4CC[C@@H]3CN4)nc12 (single isomer, unassigned) [Example 335]    5.55

(A) C[C@H]1CN(c2nc(NCc3nc4ccccc4[nH]3)n3ncc(Br)c3n2)CCN1
(B) C[C@@H]1CN(c2nc(NCc3nc4ccccc4[nH]3)n3ncc(Br)c3n2)CCN1C
Q: # query: argmin of pIC50 over A and B Which one? Tell me its label.
A: A
(A: 4.88, B: 5.11)

----------
# target.or.system: CDK12/CycK (Homo sapiens, UniProt Q9NYV4)
# Sequence (Q9NYV4 with tags, fused parts or gaps): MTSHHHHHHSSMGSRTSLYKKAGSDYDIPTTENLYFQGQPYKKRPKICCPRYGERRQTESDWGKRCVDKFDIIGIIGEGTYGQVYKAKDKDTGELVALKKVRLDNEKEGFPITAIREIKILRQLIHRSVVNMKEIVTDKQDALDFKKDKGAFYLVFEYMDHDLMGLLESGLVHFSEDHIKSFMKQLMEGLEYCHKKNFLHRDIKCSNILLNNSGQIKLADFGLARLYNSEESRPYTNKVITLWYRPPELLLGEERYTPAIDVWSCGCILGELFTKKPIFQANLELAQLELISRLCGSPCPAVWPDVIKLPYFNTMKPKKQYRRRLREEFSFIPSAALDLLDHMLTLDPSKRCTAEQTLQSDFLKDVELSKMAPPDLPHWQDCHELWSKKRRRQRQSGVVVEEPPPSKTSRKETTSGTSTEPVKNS
# Sequence (O75909 1-300 partner limits assumed): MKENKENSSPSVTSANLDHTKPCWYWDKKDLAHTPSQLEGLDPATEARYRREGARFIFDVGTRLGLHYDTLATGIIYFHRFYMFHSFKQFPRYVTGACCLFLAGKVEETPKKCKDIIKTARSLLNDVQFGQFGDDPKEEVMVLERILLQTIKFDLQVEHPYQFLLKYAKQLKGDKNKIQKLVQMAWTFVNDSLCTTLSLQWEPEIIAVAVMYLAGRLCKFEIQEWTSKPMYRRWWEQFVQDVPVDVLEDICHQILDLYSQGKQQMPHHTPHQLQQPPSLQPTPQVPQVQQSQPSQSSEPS
# method.notes: CDK12/CycK high ATP kinase assay (TR-FRET, 2 mM ATP)
# Type: biochemical
# cond: 2 mM ATP (high ATP); median; read-out: CDK12/CyclinK, 2 mM ATP (high ATP), IC50-[mol/l] (median)
value.type: IC50 (µM)

# annotated cases, reported IC50 shown
COC(=O)C1CCN(c2nc(NCc3nc4ccccc4[nH]3)n3ncc(Br)c3n2)CC1    11.5
Fc1cc2nc(CNc3nc(N4CC5CCC(C4)N5)nc4c(Br)cnn34)[nH]c2cc1Cl    2.89
CN1CCN(c2nc(NCc3nnc(-c4ccccc4)[nH]3)n3ncc(Br)c3n2)CC1=O    7.47
Cc1cc2nc(CNc3nc(N4CC5CCC(C4)N5)nc4c(C5CC5)cnn34)[nH]c2cc1C    0.942
COc1cccc2[nH]c(CNc3nc(N4CCOCC4)nc4c(CC(F)(F)F)cnn34)nc12    4.79
C[C@H]1CN(c2nc(NCc3nnc(-c4cccc(F)c4)[nH]3)n3ncc(Br)c3n2)CCN1C    7.17

(1) Cc1ccc2[nH]c(CNc3nc(N4CCOCC4)nc4c(Br)cnn34)nc2c1
(2) Fc1cccc2[nH]c(CNc3nc(N4C[C@@H]5CCCN[C@@H]5C4)nc4c(C5CC5)cnn34)nc12
Q: # query: argmin of IC50 over 1 and 2 Which one? Tell me its label.
A: 1
(1: 0.676 µM, 2: 6.5 µM)

(1) Fc1ccc2[nH]c(CNc3nc(N4C[C@@H]5CCCN[C@@H]5C4)nc4c(C5CC5)cnn34)nc2c1
(2) C[C@@H]1CN(c2nc(NCc3nc4c(F)cccc4[nH]3)n3ncc(C4CC4)c3n2)C[C@H](C)N1
Q: # query: argmin of IC50 over 1 and 2 Which one? Tell me its label.
A: 2

----------
# System: Human tumour cells (cell line panel)
# method.notes: Proliferation assay: cell line panel (crystal violet, 4 days)
# Assay type: cell-based
# cond: SK-BR-3, breast cancer, HER2 positive, 5000 cells/well, read-out: Result Category, IC50 (mean)
value.type: IC50

Q: Consider the compound Brc1cnn2c(NCc3nc4ccccc4[nH]3)nc(N3CCOCC3)nc12 and give its measured IC50.
A: ≤ 30 nM

----------
# target.or.system: CDK12 (nuclear staining in CAL-120 cells) (Homo sapiens, UniProt Q9NYV4)
# Construct: endogenous in cells; host or cells: CAL-120 human breast cancer cells (DSMZ ACC 459)
# method.notes: CDK12 nuclear protein level: immunofluorescence/high content analysis (CAL-120)
# Assay type: cell-based
# cond: CAL-120 cells, 24 h, immunofluorescence; 50% reduction of nuclear CDK12 staining intensity; median; read-out: CDK12 degradation IF, DC50- [mol/l] (median)
value.type: DC50 (nM)

# annotated cases, reported DC50 shown
Clc1cc2nc(CNc3nc(N4CCOCC4)nc4c(C5CC5)cnn34)[nH]c2cc1Cl    4.37
Fc1cccc(-c2nnc(CNc3nc(N4CCOCC4)nc4c(Br)cnn34)[nH]2)c1    1.71
COc1cccc2[nH]c(CNc3nc(N4CCOCC4)nc4c(C5CC5)cnn34)nc12    2.11
Brc1cnn2c(NCc3nc4ccccc4[nH]3)nc(N3CCC4(CCN4)CC3)nc12    19.2
Cc1cc(-c2cnn3c(NCc4nc5ccccc5[nH]4)nc(N4CCN(C)CC4)nc23)ccn1    267
FC(F)(F)c1cnn2c(NCc3nc4cc(Cl)c(Cl)cc4[nH]3)nc(N3CCOCC3)nc12    10.7
Fc1ccc2[nH]c(CNc3nc(N4CCNCC4)nc4c(C5CC5)cnn34)nc2c1    0.553
Fc1ccc2[nH]c(CNc3nc(N4CCOCC4)nc4c(C5CC5)cnn34)nc2c1    0.878
Cc1ccc(-c2nnc(CNc3nc(N4CCOCC4)nc4c(Br)cnn34)[nH]2)cc1F    38.5
c1cncc(-c2cnn3c(NCc4nc5ccccc5[nH]4)nc(N4CCOCC4)nc23)c1    5.53

(I) Brc1cnn2c(NCc3ncc(-c4ccccn4)[nH]3)nc(N3CCOCC3)nc12
(II) N[C@H]1CCN(c2nc(NCc3nc4ccccc4[nH]3)n3ncc(Br)c3n2)C1
Q: Which entry has a larger number for DC50, I or II ? Which one? Tell me its label.
A: I

(P) CC(C)(O)COc1nc(NCc2nc3ccccc3[nH]2)n2ncc(Br)c2n1
(Q) Brc1cnn2c(NCc3nc4ccccc4[nH]3)nc(N3CCNC4(CC4)C3)nc12
Q: Which entry has a larger number for DC50, P or Q ? Which one? Tell me its label.
A: P
(P: 66.2 nM, Q: 1.53 nM)

(I) CC(C)c1cnn2c(NCc3nc4ccccc4[nH]3)nc(N3CCOC[C@H]3C)nc12
(II) Fc1ccc2[nH]c(CNc3nc(N4CCOCC4)nc4c(-c5nccs5)cnn34)nc2c1F
Q: # query: argmin of DC50 over I and II Which one? Tell me its label.
A: II

----------
# Tested on: CAL-120, human breast adenocarcinoma cells
# method.notes: Proliferation assay CAL-120 (crystal violet, 4 days)
# Assay type: cell-based
# cond: Homo sapiens, CAL-120, 96 h, CAL-120 cells, median, read-out: Prolif-CAL-120, IC50-[mol/l] (median)
pIC50: −log10 of the molar value.
value.type: pIC50

COc1cccc(-c2cnc(CNc3nc(N4CCOCC4)nc4c(Br)cnn34)[nH]2)c1 [Example 80]    7.85

(1) OC[C@@H]1CCCCN1c1nc(NCc2nc3c(F)c(F)ccc3[nH]2)n2ncc(C3CC3)c2n1 [Example 184]
(2) CNC1CCN(c2nc(NCc3nc4ccccc4[nH]3)n3ncc(Br)c3n2)CC1 [Example 272]
(3) COc1cccc2[nH]c(CNc3nc(N4CCOCC4)nc4c(-c5nccs5)cnn34)nc12 [Example 414]
Q: Rank the 3 molecules: largest pIC50 first, smallest last. Form entry: ranked labels (order as requested).
A: 1, 2, 3
